# System: CAMKK2;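 further: KINOMEscan kinase panel screen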
# CONDITIONS_USED: concentration: 1 μM,replicates: in singlicate; n = 1
MEASURE_NAME: %Inh (%)
Answers are plain numbers, in %.

COMPOUND | TARGET_UNDER_TEST | %Inh [%]
CS(=O)c1ccc(-c2coc3ccc(-c4n[nH]c(=O)o4)cc23)cc1 (centres unmarked) | CAMKK2 | 12

Would you be so kind as to report %Inh for each listed record?
1. O=C(Nc1cccc(C(F)(F)F)c1)c1cccc(Oc2ccc3nccn3n2)c1
2. CC(C(=O)NC1CCN(c2ccnc(Nc3ccc(F)cc3)n2)C1)c1ccc(Cl)cc1 (centres unmarked) [GSK1379713]
3. COC(=O)c1cccc(NC(=O)NC2CCN(c3ccnc(NCc4ccc(F)cc4)n3)CC2)c1 [GSK1379860]
4. NC(=O)Nc1sc(-c2ccc(F)cc2)cc1C(N)=O [GW789449]
5. CN(c1cccc(CNc2nc(Nc3ccc4c(c3)CC(=O)N4)ncc2C(F)(F)F)c1)S(C)(=O)=O

**A:**
1: 0; 2: 5; 3: 0; 4: 7; 5: 16

Dear colleague, could you send me %Inh for each of the items below? Thanks.
1. COc1cc2nccc(Nc3ccc(Oc4ccccc4)cc3)c2cc1OC.Cl [GI261656]
2. C[C@@H]1CCN(C(=O)N2CCCC2)C[C@@H]1N(C)c1ncnc2[nH]ccc12
3. Cn1cc(-c2cccc3c(N)c(C(N)=O)nnc23)cn1

**A:**
1: 17; 2: 8; 3: 6

Provide %Inh for all items below, preserving their order.
1. CN1CCN(CCNc2nc3cc(Oc4ccc(NC(=O)Nc5cc(C(F)(F)F)ccc5F)cc4)ccc3[nH]2)CC1.Cl.Cl [GW768504]
2. OCCn1cc(-c2cnc3nnn(Cc4ccc5ncccc5c4)c3n2)cn1
3. CCn1c(-c2nonc2N)nc2cncc(CNC3CCNCC3)c21.Cl [SB-747651]
4. CCCC(=O)Nc1n[nH]c2ncccc12 [SB-601436]
5. Cc1cccc2c(-c3ccncc3)c(-c3ccc(F)cc3)nn12.Cl [GW461487]
6. CCOC(=O)N1CCC(n2cnc(-c3ccc(F)cc3)c2-c2ccnc(N)n2)CC1 [SB-219952]
7. COc1cc2c(Nc3ccc(NC(=O)c4ccccc4)cc3)ncnc2cc1OCCCN1CCOCC1 [GSK301329]
8. COC(=O)c1cccc(NC(=O)NC2CCN(c3ccnc(Nc4cc(OC)c(OC)c(OC)c4)n3)C2)c1 (centres unmarked) [GSK1379767]

**A:**
1: 0; 2: 0; 3: 16; 4: 0; 5: 11; 6: 0; 7: 0; 8: 19

Please look at the items below and tell me %Inh for each one, in order.
1. Cn1ccc2ncnc(Oc3ccc(NC(=O)Nc4cncc(C(F)(F)F)c4)c(Cl)c3)c21
2. O=C(Nc1ccccc1)c1cccc(Oc2ccc3nccn3n2)c1
3. FC(F)(F)c1cc(Br)cc(Nc2nccc(-c3cnn4ncccc34)n2)c1 [GW810578]
4. Cc1cccc(-c2nc(Nc3ccncc3)c3sccc3n2)n1 [GW869641]
5. c1ccc(Oc2ccc(Nc3ccnc4ccc(-c5ccccn5)cc34)cc2)cc1 [GW407034]
6. CN1CCN(CCCNc2nccc(-c3c(-c4ccc(F)cc4)nn4cc(C(N)=O)ccc34)n2)CC1 [GW622475]

**A:**
[14, 0, 59, 23, 9, 30]

Please give %Inh for each item listed below.
1. C[C@@H](Oc1cc(-n2cnc3ccc(-c4ccncc4)cc32)sc1C(N)=O)c1ccccc1Cl [GSK483724]
2. CCNCC(Cc1ccccc1)NC(=O)c1cc(Br)c(-c2ccnc3[nH]ccc23)s1.Cl.Cl (centres unmarked) [GSK1383280]

**A:**
59
25

State recorded %Inh for all listed compounds.
1. COc1cccc(CNC(=O)NC2CCN(c3ccnc(Nc4cc(OC)c(OC)c(OC)c4)n3)C2)c1 (centres unmarked) [GSK1379765]
2. Cc1ccc(CC(=O)N2CCc3cc(-c4cn(C)c5ncnc(N)c45)ccc32)cc1 [GSK2634758]
3. CS(=O)(=O)c1cccc(CNc2nc(Nc3ccc4c(c3)[C@@H]3C[C@@H]4CNC3=O)ncc2C(F)(F)F)c1
4. NC(=O)c1ccc(-c2cc3ncnc(SCC(=O)O)c3s2)cc1
5. N#Cc1cccc(C(=O)NC2CCN(c3ccnc(Nc4ccc(F)cc4)n3)C2)c1 (centres unmarked) [GSK1379708]

**A:**
14
19
15
81
0

For each listed entry, give its %Inh.
1. Cn1ccc2ncnc(Oc3ccc(NC(=O)Nc4cnn(C(C)(C)C)c4)c(Cl)c3)c21
2. COc1ccc(Nc2nccc(N3CCC(NC(=O)c4cccc(C#N)c4)C3)n2)cc1 (centres unmarked) [GSK1379730]
3. Cc1ccc(C(=O)Nc2ccc(Oc3ccc4nc(NC(=O)C5CC5)cn4c3)c(F)c2)c(=O)n1-c1ccccc1
4. C[C@@H]1CNc2c(sc3ccc4nc(-c5ccncc5)ccc4c23)C(=O)N1
5. Cc1ccn2nc(-c3ccc(F)cc3)c(-c3ccncc3)c2c1.Cl [GW457859]

**A:**
0
10
10
47
9
